molecular target: UniProt P50750
Sequence (P50750 whole entry): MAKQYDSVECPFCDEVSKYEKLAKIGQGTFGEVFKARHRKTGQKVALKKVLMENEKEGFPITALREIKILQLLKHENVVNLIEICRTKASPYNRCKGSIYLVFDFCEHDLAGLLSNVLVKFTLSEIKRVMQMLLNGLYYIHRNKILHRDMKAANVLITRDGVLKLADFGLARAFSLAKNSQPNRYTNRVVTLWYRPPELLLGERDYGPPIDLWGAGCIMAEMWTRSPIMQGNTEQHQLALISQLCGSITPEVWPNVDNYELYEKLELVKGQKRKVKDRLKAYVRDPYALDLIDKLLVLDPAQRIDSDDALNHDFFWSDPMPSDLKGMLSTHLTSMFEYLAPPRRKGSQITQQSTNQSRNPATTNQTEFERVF
property-label: pIC50
As a rule, pIC50 stands for the negative log10 of the concentration, concentration in M.

Ask: Please look up its pIC50: Cc1cc(O)c(-c2ccc([C@@H](C)CN(C)C)cc2)c2c1[nH]c(=O)c1sccc12 [OTS964]
Reply: 6.19
